# assay_details: melting temperature; fluorescence melt of hairpins on a sequencing array, two-state fit, raised by 9.35 °C to match UV melts
# condition_description: sodium 0.088 M
Label 1 for high-side Tm (at or above 50 °C) and -1 for low-side Tm (below it).

Query: Could you verify whether the entry GTAAGGACGAAAGTCTAC (((..(((....)))))) shows Tm of no less than 50 °C?
Result: -1

Query: Could you verify whether the entry GCCTAGCGAAAGCGAAGC ((.(.((....)).).)) shows Tm of no less than 50 °C?
Result: -1

Query: Could you verify whether the entry GCTTGGCGAAAGCGAAGC ((((.((....)).)))) shows Tm of no less than 50 °C?
Result: 1

Query: Could you verify whether the entry TGCCAGAAATGGCA (((((....))))) shows Tm of no less than 50 °C?
Result: 1

Query: Could you verify whether the entry GGTAACGAAAGTTCGACC ((((((....)))..))) shows Tm of no less than 50 °C?
Result: -1

Query: Could you verify whether the entry TCCCTGAAAAGGGA (((((....))))) shows Tm of no less than 50 °C?
Result: -1

Query: Could you verify whether the entry GTTGGCGAAAGCCGAAAC ((((((....)))..))) shows Tm of no less than 50 °C?
Result: -1
